Tested on: MDA-MB-231 breast
RUN DESCRIPTION: NCI-60 one-dose screen, 48 h
SETUP CONDITIONS: 10 µM unless noted
The panel holds about 83,000 compounds, 20% with a hit somewhere; the sample as a whole holds those more often. Active and inactive are the calls of the source. Rule for the calls: active = growth percent below 10; inactive = the rest.
Possible outcomes: active, inactive

INSERT INTO results (molecule, category) VALUES
  ('OC(c1cc2cc(Cl)c(Cl)cc2c2cc(C(F)(F)F)ccc12)C1CCCCN1 (stereo not given)', 'active'),
  ('CCc1nc(N)nc(N)c1C#CC(C)c1cc(-c2ccnc(C)c2)c2oc(C)nc2c1 (stereo not given)', 'inactive'),
  ('CCCOc1cc2ccccc2cc1C(=O)Nc1nc(NC)c2c(ccc3nccc32)[nH]1', 'active'),
  ('O=C(CN1C(=O)/C(=C/c2ccc(Cl)cc2)SC1=S)NCCCN1CCOCC1', 'inactive'),
  ('COc1ccc(C2C(C#N)=C(N)Oc3n[nH]c(-c4cccs4)c32)cc1I (stereo not given)', 'inactive'),
  ('C=C1c2nc3ccccc3n2C=C(c2ccc(Cl)cc2)N1Cc1ccc(OC)cc1', 'inactive'),
  ('N#CN1CCC[C@H]1C(=O)N1CCc2c(-c3[nH]nc4ncccc34)cccc21', 'active'),
  ('C#Cc1cccc(NC(=O)c2ccccc2NC(=O)CCl)c1', 'inactive'),
  ('CC(=O)c1cc(C(=O)c2ccc3c(c2)Sc2ccccc2N3)n2ccccc12', 'inactive'),
  ('COc1ccccc1Nc1nc(-c2cc3cccc(C(F)(F)F)c3oc2=O)cs1', 'inactive');
